Field: Relative efficacy (ACh). Provide a value for each of the molecules that follow.
# Subject of test: UniProt P36544
# Sequence (P36544 23-502): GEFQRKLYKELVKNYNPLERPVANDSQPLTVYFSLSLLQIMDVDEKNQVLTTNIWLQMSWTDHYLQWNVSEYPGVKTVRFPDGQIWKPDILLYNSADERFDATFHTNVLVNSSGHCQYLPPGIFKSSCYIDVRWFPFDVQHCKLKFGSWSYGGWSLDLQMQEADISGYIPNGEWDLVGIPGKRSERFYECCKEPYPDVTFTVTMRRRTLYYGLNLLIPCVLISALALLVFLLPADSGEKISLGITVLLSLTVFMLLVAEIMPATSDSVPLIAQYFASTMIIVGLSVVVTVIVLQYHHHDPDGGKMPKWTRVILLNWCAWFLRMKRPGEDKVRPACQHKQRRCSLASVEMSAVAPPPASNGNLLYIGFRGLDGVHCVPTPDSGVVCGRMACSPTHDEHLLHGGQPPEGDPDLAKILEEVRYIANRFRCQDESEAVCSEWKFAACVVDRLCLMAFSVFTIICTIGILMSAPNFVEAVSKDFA
# Format: cell-based
# Reported conditions: compounds at 100 μM, relative to 1 mM ACh
Give the value as a plain number.

So what's the measured Relative efficacy (ACh) for this one? COc1cc2n(c(=O)c1)CC1CNC[C@@H]2C1 (single isomer, unassigned; (-)) [Compound 69, (−)4-Methoxycytisine] 0.061

So what's the measured Relative efficacy (ACh) for this one? Cl.O=c1cc(-c2c(F)c(F)c(F)c(F)c2F)cc2n1CC1CNC[C@@H]2C1 (single isomer, unassigned; (-)) [Compound 75, (−)4-(Perfluorophenyl)cytisine] 0.0007

So what's the measured Relative efficacy (ACh) for this one? O=c1cc(-c2ccccn2)cc2n1CC1CNC[C@@H]2C1 (single isomer, unassigned; (-)) [Compound 101, (−)4-(2-Pyridinyl)cytisine] 0.16

So what's the measured Relative efficacy (ACh) for this one? Cc1cc2n(c(=O)c1)CC1CNC[C@@H]2C1.Cl (single isomer, unassigned; (-)) [Compound 110, (−)4-Methylcytisine] 0.0017

So what's the measured Relative efficacy (ACh) for this one? CC(=O)Nc1cc2n(c(=O)c1)CC1CNC[C@@H]2C1.Cl (single isomer, unassigned; (+)) [Compound 94, (+)4-(N-acetylamino)cytisine] 0.0001

So what's the measured Relative efficacy (ACh) for this one? O=c1cc(Br)cc2n1CC1CNC[C@@H]2C1 (single isomer, unassigned; (-)) [Compound 62, (−)4-Bromocytisine] 0.28

So what's the measured Relative efficacy (ACh) for this one? C#Cc1cc2n(c(=O)c1)CC1CNC[C@@H]2C1.Cl (single isomer, unassigned; (-)) [Compound 127, (−)4-(acetylenyl)cytisine] 0.17

So what's the measured Relative efficacy (ACh) for this one? O=c1cc(Cl)cc2n1CC1CNC[C@@H]2C1 (single isomer, unassigned; (-)) [Compound 60, (−)4-Chlorocytisine] 0.38

So what's the measured Relative efficacy (ACh) for this one? c1cnc2cc3c(cc2n1)[C@@H]1CNC[C@H]3C1 [Varenicline, reference compound] 0.96

So what's the measured Relative efficacy (ACh) for this one? O=c1cc(-c2ccncc2)cc2n1CC1CNC[C@@H]2C1 (single isomer, unassigned; (-)) [Compound 103, (−)4-(4-Pyridinyl)cytisine] 0.07

So what's the measured Relative efficacy (ACh) for this one? Cc1ccc(-c2cc3n(c(=O)c2)CC2CNC[C@@H]3C2)cc1 (single isomer, unassigned; (+)) [Compound 73, (+)4-p-Tolylcytisine] 0.0027

So what's the measured Relative efficacy (ACh) for this one? Cl.O=c1cc(CO)cc2n1CC1CNC[C@@H]2C1 (single isomer, unassigned; (-)) [Compound 122, (−)4-(Hydroxymethyl)cytisine] 0.0067

So what's the measured Relative efficacy (ACh) for this one? CCc1cc2n(c(=O)c1)CC1CNC[C@@H]2C1.Cl (single isomer, unassigned; (-)) [Compound 118, (−)4-Ethylcytisine] 0.0057

Values were extracted from patent US11667638B2.
